Reference source for all entries: the DeepSol protein solubility set

# method.description: soluble on expression in E. coli; label from the status in PepcDB or PDB records
assay.readout: soluble on expression in E. coli

Use these answered entries as a reference point.
>>> result("QEQAVILRFGKYYETVGPGLNFYFPPIDKRFQENVTRERAYSKQGQMLTEDENIVEVPLTVQYKISNLQDFVLNVDQPEVSLQQATESALRHVAGSTTMDRILTEGREQMATEVRERLQRFLDTYRTGITVTQVNIQSAQAPREVQEAFDDVIRAREDEQREKNQAEAYANGVVPEARGQAQRIIEEANGYRDEVISRAQGEADRFSKLLVEYRKAPEVTRERLYLDTMQEVFSQTSKVLVTGQQGQNNLLYLPLDKMIDGRNAAPATGAGASAGGGSASASDLGSRIVNDLRQQDARTRESR")
"not soluble"
>>> result("MGSDKIHHHHHHMIEQQMPFRRILLTSDTFQILKEGQIISTFNKCGIFYCQRGSVEVSLEGCHYHIKPGDVYIYMASTLVHLLHKSEDAEGIMVEVDFYYILPIVNKVINVESQLFMRKNPCVSLSGEQCAHFEYLLNNLWDRINAEDCQKENVQYQHLKLELIKSMGQTICYEILNMYFTNQPLQPLQQGKKDVVFQNFMLSLFRFYRKERDVSFYARMQHITPRYFSAIIKEKTGDSALQWIVRMVITEAKQLLEESDLSIKEIADQLNFPTQSFFGKYFKQYVGVSPKEYRNNAATTRIKR")
"not soluble"
>>> result("MAAPPSPGRTADQADQVCTFLFKKPGRKGAAGLRKRPACDPEHGESSSSGDEGDTVAQPPRVAPRPRGLHSWQKAAHGDRRGEEAAPESLDVVYRSTRSAKPVGPEDMGATADFEQDTEKEHHTPTILKCSQRVQEALRGREHDHIYRGIHSYLRYLKPKDTSMGNSSSGMARKGPIRAPGHLRATVRWDYQPDICKDYKETGFCGFGDSCKFLHDRSDYKLGWEIERELEEGRYCICEDENHEVGSEEEEIPFRCFICRQAFQNPVVTKCRHYFCESCALEHFRATPRCYICDQPTGGIFNPAKELMAKLQKLQAAEGKKR")
"soluble"
>>> result("MQMESQRRDVFYVSDGTAITCETLGHVVLGQFAVQPNEKTFPFVESDEKLSELLKQIQRSYQLHGVKPLVFFSMVIPEMRTRLLQAPAHFYDVLESIVQRVSLDIEMEPAPKLQRSRSVGKDSDTYFDRIAAIEYTLAHDDGVSLKDLDRADIILLGVSRSGKTPTSLYMAMQFGLRVVNYPFIAEDMHAMRLLPEFEFHRHKLFGLTINAERLTEIRENRLAGSEYASNQQCQQELATVEALFRREAISYINTSSLSVEEISTRILERTGLKRRLF")
"not soluble"
>>> result("MNQEKIADLKNWMHQEKIDFTYISDPGHIAYFSGYESEPHERVLALFIAADDQSFLFTPALEVEDAEKSSWTYPVYGYLDSENPWEKIAALLNKRTQGTPRFALEKQALSLARFDQLKTYFPASDFSHDVTPLIEKLQLIKTEPEIQRLLEAGSWADVAFEIGFKAIQAGVAEQEIVAEIEYQLKRQGIRSMSFDTLVLTGKNGASPHGVPGETKIEPHDLVLFDLGVVHNGYCSDATRTVSYLEPSDFQKEIYGIVLEAQLAATEAVKPGVTAGELDDIARGVITKAGYGEYFNHRLGHGIGTTVHEYPSLVHGNDLVIEEGMCFSIEPGIYIPGKVGVRIEDCLHVTKTGSEPFTKTTKELQIIQ")
"not soluble"
>>> result("SLSFASSACFNEAGTMFRIEPNLIKAIALVESNLKKDSIGKNRDKKNNIKSFDYGLMQINQMHIPMLKKRGIIKDERDLLDNPCLNIKIGTEILYKHFSRCGMTWQCLGTYNAGFAMDNQKKRLQYAKKIYIVYTRLNELDNRKALA")
"not soluble"
>>> result("QALQTLVEKISIVFFQKPFLHQATFNRRLKTTGGRYHLASHHLDFNPTVFLKYGQEELEKVIKHELCHYHLHLAGKGYQHKDKDFKELLAKTGGARYAPPLVERKKAVFHQYQCQSCGEVILRKRRIDTTRYVCGKCHGRLSWQ")
"not soluble"
>>> result("GYSQYNIHGNQFYNLGIDYAYRWHRFSFQGETAMGKQGSATLNRFQYSPVEGTQLMIVQRYYSYNYWAMFAHSFGEGSAVQNEQGYYLGVETSPFRYWHILASFDLFSFPWKKYRISKPSRGMDGLLQATFTPHNNLTMYLKYRYKQKERDLTGSKENLTLPIFHHQLRYRLNYFYGDVFSCRTTLDYNHFHSQDRAASKGYQVTQMMSSQLPWTRLFADVQGSYFSTDDYDSRVYVSEKGLLYTFYTPSFQGRGFRCAVRLRYEPNEHWMFITKFGETVYLDRNEIGSGNDLILGNKKADVQMQLRIKF")
"not soluble"

Working through the 2 sequences below one at a time, give soluble on expression in E. coli for each.
1. SKSFNYSVSFNLSDYQGTVLKYSNPKGLIYDYYVGKKMGTIWGYTTDHIMTDPAEAKAINDSGVQNKFGGDWVVGDIKYVNLDDDPNINDGNQTLEDHGDLSIIGNDTPRYNFGFGFNADWNGIDFSMFLQGTMKRDLWLEGPVAFGLGGGQWGSNVWKNTLDCWREDGSNPDPWLPRLYLWSTSKNLQKQTRYMDTGAYCRLKNIQLGYSLPGAIINKVGLEKVRIYFSGDNLLTFSGINENFDPEAPWGGAYPISKSISFGVNVTF
2. THALEPSKPLAHDEKPITIEVVSMDWKWFFIYPEQGIATVNEIAFPANTPVYFKVTSNSVMHSFFIPRLGSQIYAMAGMQTRLHLIANEPGTYDGICAEICGPGHSGMKFKAIATPDRAAFDQWVAKAKQSPNTMSDMAAFEKLAAPSEYNQVEYFSNVKPDLFADVINKFMAHGKSMDMTQPEGEHSAHEGMEGMDMSHAESAH

stdout:
not soluble
soluble

----------
# method.description: soluble on expression in E. coli; label from the status in PepcDB or PDB records
assay.readout: soluble on expression in E. coli

>>> result("GMPKLDLDSIERRIGSVYPGRLNAAMDGRSSLRLGDAGGLSQFGVNLVRLEPGAKSSLRHYHMEQDEFVMVTEGALVLVDDQGEHPMVPGDCAAFPAGDPNGHQFVNRTDAPATFLVVGTRTPTETAYYSDMDMMVKQDASGFAFTRKDGSPLTADQIGDDNE")
"soluble"
>>> result("AHHHHHHGSKAMEFVGYKKSGKTTCVENVAKVLKKEKGYRVAIAKSMHSNFDKEETDTWKFSRIADYVIVHAQDIDGLLFKAKDVNALFSMVSADILLIEGFKSITHVPKVICAKSEEEVRELNNGLAIAVSGVIANKGIKEIDGLPVINATKEPEKLAELVEKKGFMLPNIDCGLCGYNCAEMAKLIVKGEKTVKDCVVLSSTPKVTIKIDGQVLPLKDWVQELVEKTIKGMLSAMKGYREGRKIEIVIKE")
"soluble"

----------
# method.description: soluble on expression in E. coli; label from the status in PepcDB or PDB records
assay.readout: soluble on expression in E. coli

>>> result("MTYRIVLKSDPEKRFKNIRACKDEPMQMVVRNINNGADYVHPEQDVEVFSVKTANNNDLVCVKCTPDSYSSNPAVAEQVVLFCQPNSSDLGGFLQPNSMNFVTYANVFETDLYAFDYSGYGFSSGTQGEKNVYADVRAVYEKILEMRPDKKIVVMGYSIGTTAAVDLAATNPDRLAGVVLIAPFTSGLRLFSSKPDKPDTCWADSFKSFDKINNIDTRVLICHGDVDEVIPLSHGLALYEKLKNPVPPLIVHGANHHTILSGKYIHVFTRIANFLRNETLVSCRSAEVDSSQQQQQLSSKRTENE")
"not soluble"
>>> result("MGHHHHHHSHMSIFTPTNQIRLTNVAVVRMKRAGKRFEIACYKNKVVGWRSGVEKDLDEVLQTHSVFVNVSKGQVAKKEDLISAFGTDDQTEICKQILTKGEVQVSDKERHTQLEQMFRDIATIVADKCVNPETKRPYTVILIERAMKDIHYSVKTNKSTKQQALEVIKQLKEKMKIERAHMRLRFILPVNEGKKLKEKLKPLIKVIESEDYGQQLEIVCLIDPGCFREIDELIKKETKGKGSLEVLNLKDVEEGDEKFE")
"soluble"
>>> result("MGSDKIHHHHHHMTWNTPKPGEWKSEELSKGRIIDYKAFNFVDGEGVRNSLYVAGCMFHCEGCYNVATWSFDAGIPYTQELEEQIMEDLAQPYVQGLTLLGGEPFLNTGILLPLLKRIRKELPEKDIWSWTGYTWEELMLETPDKLEMLNLLDILVDGRFDKSKKNLMLQFRGSSNQRIIDVPKSLASGQVVIWDKLNDGKQTYEQIDRDGLI")
"not soluble"
>>> result("YEGGWTQDKQWEREMNIAQEKYGPIFAKYAAMPIEEVAKDEHAMKMGSRMFATYCSICHGSDAKGALGFPNLADNEWRWGGDPQSIETTILGGRHAIMAAWGDILGEDGVKNVAAYVRTELAGLKLPEGTKADVEAGKQIFSVNCVACHGPEGKGTALVGAPNLTNPGAFIYGSSYAQLQQTIRHGRQGQMPAQEPYLGKEKVHILAAYI")
"not soluble"
>>> result("VVRVGRRSATFYPPEGAAALIGDFTDWERNPIPLEGPLTLEFPEGAYVEYAFLDREGRPFPDPDNPEKAENPWWSYPRAIKLPGFRYEAPPAPKEEPKVHRHRLGERRFYVAETGPSPKATVVAQDGVAFYRTAGLHKVARALFEAGEIPPVRLVFVEPIDRNTEYRFNEAYEAEFHRVLEEVEGAYGPLNELVLVGASLGGLFSLWQAWRHPERFPKVLALSPALKAHPGGKDAYRDEEWLLARYAEARRLPRVYVEVGLLEWLLGPNRRLAALFADKKVPHAYRERPSGHNWVTWKQALAPGLRYLLGPQ")
"soluble"

Shifting focus to the sequence that follows.
stdin: Bench note: what soluble on expression in E. coli did GAMGNKEKADQQKAITDIVALENALDMYKLDNSVYPTTDQGLEALVTKPSSPEPRNYRNGGYIKRLPKDPWGNEYQYMSPGDKGTIDIFTLGADGQEGGEGAAADIGNWNMQDFQ show?
stdout: soluble
